Hey, just so you know, these numbers are from ChEMBL document CHEMBL1806392.

// Acetylcholinesterase (Homo sapiens) (UniProt P22303) MIC records

Would you please look over these solved cases?
CC/C=C/[C@@]12[C@@H]3C[C@H]4[C@H]5[C@H](C)/C(=C6/OC(=O)C(C)=C6OC)O[C@]5(O3)[C@@H]1CCN42 ... 5 ng
CC[C@H](O)C[C@@]12[C@@H]3C[C@H]4[C@H]5[C@H](C)/C(=C6\OC(=O)C(C)=C6OC)O[C@]5(O3)[C@@H]1CCN42 ... 10 ng
CC[C@H](O)C[C@@]12[C@@H]3C[C@H]4[C@H]5[C@H](C)[C@@H]([C@@H]6OC(=O)C(C)=C6OC)O[C@]5(O3)[C@@H]1CCN42 ... 100 ng
CCCC[C@@]12C3CCN1[C@H]1C[C@H]2O[C@@]32O/C(=C3\OC(=O)C(C)=C3OC)[C@@H](C)[C@H]12 ... 10 ng
CC[C@H](O)C[C@@]12[C@@H]3C[C@H]4[C@H]5[C@H](C)/C(=C6/OC(=O)C(C)=C6OC)O[C@]5(O3)[C@@H]1CCN42 ... 10 ng

Now turn to the next molecule.
# lookup: CC[C@H](O)C[C@@]12[C@@H]3C[C@H]4[C@H]5[C@H](C)[C@@H]([C@H]6OC(=O)C(C)=C6OC)O[C@]5(O3)[C@@H]1CCN42 on Acetylcholinesterase (Homo sapiens) (UniProt P22303), MIC = 50 ng
